Test system: HepG2 cells
experimental_protocol: MTT cytotoxicity / cell survival assay
Assay type: cell-based
measurement_conditions: read-out: CC50 (cytotoxic concentration required to inhibit HepG2 cell growth by 50%)
Protocol: A single luciferase reporter gene detection model was applied to screen the inhibitory effects towards COL1A1 promotor of all target compounds in human hepatic stellate LX-2 cells at the concentration of 40 μM, taking EGCG and compound 1 as the positive controls. […] The cytotoxicity was determined using MTT assay in HepG2 cells. The cell survival was evaluated by MTT assay. […] The absorbance at 570 nm was measured using a microplate reader (ELx800, BioTek Instruments, Winooski, VT, USA).
property_label: CC50
Write the figure, then the unit, nothing else.

Reported CC50 for HepG2 cells, given Cc1ccc(S(=O)(=O)N2CC3CCCN4CCCC(C34)C2CCCc2nnc(Nc3ccccc3)s2)cc1 (stereo not shown) ? 82.5 µM

----------
experimental_protocol: MTT cytotoxicity / cell survival assay
Format: cell-based
measurement_conditions: human, HepG2 cells, read-out: CC50 (cytotoxic concentration required to inhibit HepG2 cell growth by 50%)
Experimental: A single luciferase reporter gene detection model was applied to screen the inhibitory effects towards COL1A1 promotor of all target compounds in human hepatic stellate LX-2 cells at the concentration of 40 μM, taking EGCG and compound 1 as the positive controls. […] The cytotoxicity was determined using MTT assay in HepG2 cells. The cell survival was evaluated by MTT assay. […] The absorbance at 570 nm was measured using a microplate reader (ELx800, BioTek Instruments, Winooski, VT, USA).
# CC50 at 24 h per entry

Please review the entries below; each comes with its answer.
# molecule, CC50 at 24 h
records = [
    ("Cc1ccc(CN2CC3CCCN4CCCC(C2CCCc2nnc(N)s2)C34)cc1 (stereo not drawn) [Compound 6l]", "> 320 µM"),
    ("Nc1nnc(CCCC2C3CCCN4CCCC(CN2Cc2ccccc2)C34)s1 (stereo not drawn) [Compound 6i]", "> 320 µM"),
    ("Cc1ccc(S(=O)(=O)N2CC3CCCN4CCCC(C34)C2CCCc2nnc(Nc3ccccc3)s2)cc1 (stereo not drawn) [Compound 6e]", "> 82.6 µM"),
    ("Cc1ccc(CN2CC3CCCN4CCCC(C2CCCc2nnc(N(C)C)s2)C34)cc1 (stereo not drawn) [Compound 6n]", "> 320 µM"),
    ("Cc1ccc(S(=O)(=O)N2CC3CCCN4CCCC(C34)C2CCCC(=O)O)cc1 (stereo not drawn) [Compound 1]", "> 320 µM"),
]

# CC50 at 24 h lookup, item Cc1ccc(S(=O)(=O)N2CC3CCCN4CCCC(C34)C2CCCc2nnc(N)s2)cc1 (stereo not drawn) [Compound 6a] > 320 µM

----------
property_label: melting point

# compound, property_label, experimental_result
data = [
    ("O=C(O)CCCC1C2CCCN3CCCC(CN1Cc1ccccc1)C23 (stereo not shown) [Compound 5b, 12-N-Benzyl matrinic acid]", "melting point", "95 to 96 °C"),
    ("CC(=O)Nc1nnc(CCCC2C3CCCN4CCCC(CN2Cc2ccccc2)C34)s1 (stereo not shown) [Compound 7c]", "melting point", "188 to 189 °C"),
    ("CNc1nnc(CCCC2C3CCCN4CCCC(CN2S(=O)(=O)c2ccc(C(F)(F)F)cc2)C34)s1 (stereo not shown) [Compound 6g]", "melting point", "181 °C (dec.)"),
    ("Cc1ccc(S(=O)(=O)N2CC3CCCN4CCCC(C34)C2CCCC(=O)O)cc1 (stereo not shown) [Compound 1]", "melting point", "239 to 240 °C"),
    ("Cc1ccc(S(=O)(=O)N2CC3CCCN4CCCC(C34)C2CCCc2nnc(N(C)C)s2)cc1 (stereo not shown) [Compound 6d]", "melting point", "142 to 143 °C"),
]

Here is the next item to consider.
# melting point lookup, item CN(C)c1nnc(CCCC2C3CCCN4CCCC(CN2S(=O)(=O)c2ccc(C(F)(F)F)cc2)C34)s1 (stereo not shown) [Compound 6h] 147 to 148 °C
